biological target: binding of human MCP-1 to THP-1 cells (Homo sapiens); construct: endogenous in cells; host or cells: THP-1 (human monocytic leukemia cell line), whole cells; test: Inhibition of binding of [125I]-labeled baculovirus expressed human MCP-1 to THP-1 cells (Method 1); conditions: Method 1, at 10 μM
Value Kind: inhibition at 10 µM

Reading of inhibition at 10 µM for `CN(C)c1ccc(CN2CCC(CNC(=O)CNC(=O)c3cccc(C(F)(F)F)c3)CC2)cc1` with binding of human MCP-1 to THP-1 cells (Homo sapiens): 50 to 80%

Result for `O=C(CNC(=O)c1cccc(C(F)(F)F)c1)N[C@H]1CCN(Cc2ccccc2)C1` , tested on binding of human MCP-1 to THP-1 cells (Homo sapiens), inhibition at 10 µM: 20 to 50%

Now for another entry.
The recorded inhibition at 10 µM with binding of human MCP-1 to THP-1 cells (Homo sapiens) for `NC(=O)c1ccc(CN2CCC(CNC(=O)CNC(=O)c3cccc(C(F)(F)F)c3)CC2)cc1` was 20 to 50%

* * *

Consider the following compounds and their measured inhibition at 1 µM readings.
target: binding of human MCP-1 to THP-1 cells (Homo sapiens, UniProt P41597); construct: endogenous in cells; host or cells: THP-1 (human monocytic leukemia cell line), whole cells; assay: Inhibition of binding of [125I]-labeled baculovirus expressed human MCP-1 to THP-1 cells (Method 2); conditions: Method 2, at 1 μM
Sequence (P41597 1-360 isoform P41597-2): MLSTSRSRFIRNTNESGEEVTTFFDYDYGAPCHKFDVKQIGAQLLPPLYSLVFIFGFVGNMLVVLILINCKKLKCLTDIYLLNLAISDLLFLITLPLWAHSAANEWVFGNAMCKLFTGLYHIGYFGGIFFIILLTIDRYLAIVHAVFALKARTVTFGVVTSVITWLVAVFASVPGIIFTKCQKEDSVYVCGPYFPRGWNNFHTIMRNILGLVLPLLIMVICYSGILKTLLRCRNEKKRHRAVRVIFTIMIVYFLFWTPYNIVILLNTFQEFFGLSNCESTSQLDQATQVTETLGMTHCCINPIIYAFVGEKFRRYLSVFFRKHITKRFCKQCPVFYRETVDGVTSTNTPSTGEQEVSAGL

Measured inhibition at 1 µM, Nc1ccc(Cl)cc1C(=O)NCC(=O)NCC1CCN(Cc2ccc(SC(F)(F)F)cc2)CC1 [Compound No. 1616] : 20 to 50%

More entries:
For this compound ( Nc1cc(CN2CC[C@@H](NC(=O)CNC(=O)c3cc(C(F)(F)F)ccc3N)C2)ccc1Cl [Compound No. 2132] ), measured inhibition at 1 µM is > 80%

Entry under test: Nc1ccc(C(F)(F)F)cc1C(=O)NCC(=O)N[C@@H]1CCN(Cc2ccc(Br)cc2F)C1 [Compound No. 2120] . Its inhibition at 1 µM was > 80%

Given item Nc1ccc(Br)cc1C(=O)NCC(=O)NCC1CCN(Cc2ccc(Cl)cc2)CC1 [Compound No. 1042] , the value recorded as its inhibition at 1 µM is > 80%
